test system: Enterobacter cloacae OMNF 1153
Flag rule - MIC less than 2 µg/mL flags TRUE; the remaining entries get FALSE.

Nc1cc2c(=O)c(C(=O)O)cn(C3CC3)c2cc1N1CCSCC1 [Compound 15]    TRUE
CN1CCN(c2nc3c(cc2N)c(=O)c(C(=O)O)cn3C2CC2)CC1 [Compound 40]    TRUE
CC1CN(c2cc3c(cc2N)c(=O)c(C(=O)O)cn3C2CC2)CC(C)N1 (stereo not drawn) [Compound 11]    TRUE
CN1CCN(c2cc3c(cc2N)c(=O)c(C(=O)O)cn3C2CC2)CC1 [Compound 8]    TRUE
CN1CCN(c2c(F)cc3c(=O)c(C(=O)O)cn4c3c2SCC4)CC1 [RUFLOXACIN, reference compound]    TRUE
CN1CCN(c2c(N)c(N)c3c(=O)c(C(=O)O)cn(C4CC4)c3c2F)CC1 [Compound 28]    TRUE
CN1CCN(c2nc3c(c(N)c2N)c(=O)c(C(=O)O)cn3C2CC2)CC1 [Compound 42]    TRUE
Cc1c(N2CCSCC2)c(N)cc2c(=O)c(C(=O)O)cn(C3CC3)c12 [Compound 35]    TRUE
CN1CCN(c2cc3c(cc2N)c(=O)c(C(=O)O)cn3-c2ccc(F)cc2)CC1 [Compound 50]    FALSE

Next, consider the following compound.
Consider the compound CC(C)(C)n1cc(C(=O)O)c(=O)c2cc(N)c(N3CCN(c4ccccn4)CC3)cc21 [Compound 48] . Is its MIC strictly less than 2 µg/mL?
FALSE

----------
tested on: Pseudomonas aeruginosa CNUR 4; assay: MIC test, agar dilution with Steers multiwell inoculator; format: cell-based; conditions: CNUR4, TSA dishes, 24 h at 35°C, read-out: Minimum Inhibiting Concentration
Property: MIC
Field: value (include unit after the number)

// MIC lookup, compound = Cc1c(N2CCNCC2)c(N)cc2c(=O)c(C(=O)O)cn(C3CC3)c12 [Compound 34] , result: 16 µg/mL

----------
# MIC listing for each entry below
system: Pseudomonas aeruginosa CNUR 4; experiment: MIC test, agar dilution with Steers multiwell inoculator; assay type: cell-based; conditions: CNUR4, TSA dishes, 24 h at 35°C, read-out: Minimum Inhibiting Concentration
Numeric only. Scale: µg/mL

Nc1cc2c(=O)c(C(=O)O)cn(C3CC3)c2cc1N1CCNCC1    64
Nc1cc2c(=O)c(C(=O)O)cn(C3CC3)c2cc1N1CCC(O)CC1    128
CC(C)(C)n1cc(C(=O)O)c(=O)c2cc(N)c(N3CCc4ccccc4C3)cc21    128
Nc1cc2c(=O)c(C(=O)O)cn(-c3ccc(F)cc3)c2cc1N1CCc2ccccc2C1    128

// MIC lookup, compound = Nc1cc2c(=O)c(C(=O)O)cn(-c3ccc(F)cc3)c2cc1N1CCSCC1 , result: 128

// MIC lookup, compound = CN1CCN(c2c(N)cc3c(=O)c(C(=O)O)cn(C4CC4)c3c2F)CC1 , result: 32

// MIC lookup, compound = CN1CCN(c2cc3c(cc2N)c(=O)c(C(=O)O)cn3C2CC2)CC1 , result: 64

// MIC lookup, compound = CN1CCN(c2nc3c(c(N)c2N)c(=O)c(C(=O)O)cn3C2CC2)CC1 , result: 128

// MIC lookup, compound = Nc1cc2c(=O)c(C(=O)O)cn(C3CC3)c2cc1N1CCSCC1 , result: 128

// MIC lookup, compound = CN1CCN(c2c(F)cc3c(=O)c(C(=O)O)cn4c3c2SCC4)CC1 [RUFLOXACIN, reference compound] , result: 64
